The measured values listed here are drawn from ChEMBL document CHEMBL3885861.

MCV by entry:
- Species on record: Rattus norvegicus
- protocol.text: Open TG-GATES - Regimen: Daily Repeat
- Format: toxicity, organism-based, Sprague-Dawley
- Design: regimen Daily Repeat, gender Male, age 6 weeks
- condition.set: in vivo, po, 0 mg/kg, […], tissue Blood, route gavage, dose level Control, time 14 day
readout: MCV

1. COC1=CC(=O)C[C@@H](C)[C@]12Oc1c(Cl)c(OC)cc(OC)c1C2=O
62.2 fL
2. COc1ccc2[nH]c([S+]([O-])Cc3ncc(C)c(OC)c3C)nc2c1 (stereo unspecified)
59.9 fL
3. CCCNC(=O)NS(=O)(=O)c1ccc(Cl)cc1 [CHLORPROPAMIDE]
60.8 fL
4. NC(N)=Nc1nc(CSCCC(N)=NS(N)(=O)=O)cs1
60.9 fL
5. NNC(=O)c1ccncc1
60.6 fL
6. CN1C(=O)CN=C(c2ccccc2)c2cc(Cl)ccc21
62.9 fL
7. CN(C)CCN(Cc1cccs1)c1ccccn1
59.4 fL
8. CC1=C(/C=C/C(C)=C/C=C/C(C)=C/CO)C(C)(C)CCC1
59.2 fL
9. CN(C)CCCN1c2ccccc2CCc2ccccc21
60.6 fL
10. CCOC(=O)CCC(=O)O[C@H]1[C@H](O[C@@H]2[C@@H](C)[C@H](O[C@H]3C[C@@](C)(OC)[C@@H](O)[C@H](C)O3)[C@@H](C)C(=O)O[C@H](CC)[C@@](C)(O)[C@H](O)[C@@H](C)C(=O)[C@H](C)C[C@@]2(C)O)O[C@H](C)C[C@@H]1N(C)C [ERYTHROMYCIN ETHYLSUCCINATE]
61.5 fL
11. CCOc1ccc(NC(=O)CC(C)O)cc1 (stereo unspecified)
60.2 fL

###

- Organism: Rattus norvegicus
- protocol.text: Open TG-GATES - Regimen: Daily Repeat
- Format: toxicity, organism-based, Sprague-Dawley
- Design: regimen Daily Repeat, gender Male, age 6 weeks
- condition.set: in vivo, po, 10 mg/kg, […], tissue Plasma, route gavage, dose level Low, time 14 day
TC by entry:
readout: TC (mg/dL)

1) CC1=C(/C=C/C(C)=C/C=C/C(C)=C/CO)C(C)(C)CCC1
70.2
2) CN(C)CCCN1c2ccccc2CCc2ccccc21
72
3) CN(C)CCN(Cc1cccs1)c1ccccn1
71.8
4) CC(C)OC(=O)C(C)(C)Oc1ccc(C(=O)c2ccc(Cl)cc2)cc1 [FENOFIBRATE]
57.2

###

- Species: Rattus norvegicus
- protocol.text: Open TG-GATES - Regimen: Single
- Format: toxicity, organism-based, Sprague-Dawley
- Design: regimen Single, gender Male, age 6 weeks
- condition.set: in vivo, po, 10 mg/kg, 6 h, tissue Blood, route gavage, dose level Low
Classify by measured Fbg: rule met if it is equal to or exceeds 300 mg/dL, rule not met if it is smaller.

1) CC(C)OC(=O)C(C)(C)Oc1ccc(C(=O)c2ccc(Cl)cc2)cc1 [FENOFIBRATE]
rule not met
2) CC1=C(/C=C/C(C)=C/C=C/C(C)=C/CO)C(C)(C)CCC1 [RETINOL]
rule met
3) CN(C)CCCN1c2ccccc2CCc2ccccc21 [IMIPRAMINE]
rule not met
4) CN(C)CCCN1c2ccccc2CCc2ccc(Cl)cc21 [CLOMIPRAMINE]
rule not met
